- assay.info: viability of PTEN-null HCT116 cells – cell-based, HCT116 clonal line, CellTiter-Glo, pilot screen (AID 824);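 also: 0% = 20 µM Hyamine control and 100% = vehicle cell control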
- settings: HCT116 PTEN-deleted viability, 60 h, at 10 µM, stronger effect = lower value
Inconclusive results are not listed.
# viability per record follows
The response must be a number in % with no trailing unit.

Cc1ccc(N2C(=O)c3ccc(C(=O)N4CCN(c5ccccc5F)CC4)cc3C2=O)cc1 :: 90
CCOc1ccc(OCC)c(Nc2cc(C)nc3nc(C)nn23)c1 :: 46.6
COc1ccc(C2CC(c3cccc(Cl)c3)n3nc(N)nc3N2)cc1 (stereo unspecified) :: 89.9
COCCNC(=O)c1cc(-c2ccccc2OC)on1 :: 55.5
O=C(NCCN1CCCC1)c1ccc(CS(=O)(=O)c2c(Cl)cccc2Cl)o1 :: 102
CCCc1cc(C(=O)Nc2sc(C(C)=O)c(C)c2C(=O)OCC)no1 :: 78.4
COCc1cc(C)nc(N2CCOCC2)c1C#N :: 101
O=C(CSc1nc2ccccc2o1)NCc1ccc2c(c1)OCO2 :: 83.9
O=C(NCc1ccc2c(c1)OCO2)C1CCC(CNc2c(N3CCCCC3)c(=O)c2=O)CC1 (stereo unspecified) :: 88.9
CC(C)CCSc1nc2c(c(=O)[nH]c(=O)n2C)n1CCCc1ccccc1 :: 59.1

Consider now this further compound.
q: Give the measured viability of CC(=O)Nc1nc(-c2ccccc2)nc(C)c1C(C)=O .
a: 99.5

====

# inhibition per record follows
- assay.info: RAM pathway blockade in budding yeast – dse1pr::URA3 reporter, 5-FOA selection, pilot screen (AID 869);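 also: 0% = DMSO wells with no growth and 100% = 10 µM 1-NA-PP1 with full growth; RAM network block rescues cells from 5-FOA so hits raise OD615 growth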
- settings: S. cerevisiae dse1pr::URA3 5-FOA growth, OD615, 2 d; at 10 µM; stronger effect = higher value; strain carries analog-sensitive mutant Cbk1 kinase
The response must be a number in % with no trailing unit.

NS(=O)(=O)c1ccc(CCNC2CC(=O)N(CCc3ccccc3)C2=O)cc1 (stereo not drawn) :: 0.24

q: Give the measured inhibition of Cn1c(=O)c2cc(NCc3ccccc3)nnc2n(C)c1=O .
a: 0.38

q: Give the measured inhibition of CC/C(=C\C(=O)c1ccncc1)Nc1ccc(O)cc1 .
a: 1.58

====

- assay.info: growth suppression of yeast trafficking mutant, preliminary HTS, modulators of trafficking downstream of Golgi apparatus project, 1536-format plate, OD 615 nm (AID 637)
- settings: yeast transport mutant growth, absorbance 615 nm, 18 h; stronger effect = higher value
parameter: inhibition (%)
The response must be a number in % with no trailing unit.

COc1ccc(C2CC(c3ccc(Cl)cc3Cl)n3nc(N)nc3N2)cc1 (stereo not drawn) :: 3.67

q: Give the measured inhibition of CCC(=O)N1CCN(c2nc(-c3ccccc3)c3c(c2C#N)CCCC3)CC1 .
a: 4.59

q: Give the measured inhibition of O=C(Nc1cnccn1)c1cccs1 .
a: 1.77

q: Give the measured inhibition of Cc1ccc(Cn2c(CN3CCOCC3)nc3c2c(=O)n(C)c(=O)n3C)cc1 .
a: 0

q: Give the measured inhibition of OC1(c2cccc(C(F)(F)F)c2)CCN(c2ccc(-c3ccccc3)nn2)CC1 .
a: 0.98

q: Give the measured inhibition of Cc1nc2sc(C(c3cccs3)N3CC(C)CC(C)C3)c(O)n2n1 (stereo not drawn) .
a: 8.85

q: Give the measured inhibition of N#Cc1c2n(c(=O)[nH]c1=O)CCCCC2 .
a: -7.46

q: Give the measured inhibition of Cc1c(C(=O)OCc2ccccc2)[nH]c2c1C(=O)CC(c1ccco1)C2 (stereo not drawn) .
a: -0.5

q: Give the measured inhibition of COc1ccc(N2CCN(Cc3nc4c(c(=O)n(C)c(=O)n4C)n3Cc3ccccc3C)CC2)cc1 .
a: -2

q: Give the measured inhibition of COc1ccc(-n2c(Cc3cccn3C)nnc2SCC(=O)Nc2ccccc2)cc1 .
a: 4

q: Give the measured inhibition of Cc1nc2ccccc2c2oc(C(=O)NCCCN3CCCC3=O)cc12 .
a: -2.62

q: Give the measured inhibition of COc1ccc(C2C(C(=O)Nc3cccnc3)=C(C)Nc3nc(-c4cccs4)nn32)cc1OC (stereo not drawn) .
a: -6.17

q: Give the measured inhibition of CC(=O)NCc1nc2ccccc2n1C(C)C .
a: -4.83

q: Give the measured inhibition of CCOC(=O)CCCOC(=O)c1ccc(S(=O)(=O)N(C)C)cc1 .
a: 2.79

q: Give the measured inhibition of COCCNC(=O)C(C)N(c1ccc(Oc2ccccc2)cc1)S(C)(=O)=O (stereo not drawn) .
a: 3.44

q: Give the measured inhibition of COC(=O)CN1C(=O)C(O)(CC(=O)c2ccc(C)cc2)c2cc(Br)ccc21 (stereo not drawn) .
a: -1.5

q: Give the measured inhibition of COc1cc2c(cc1OC)C(c1ccc(C)o1)CC(=O)N2 (stereo not drawn) .
a: 4.33

q: Give the measured inhibition of O=C(c1ccco1)N1CCN(C2=NS(=O)(=O)c3ccccc32)CC1 .
a: -12.7

q: Give the measured inhibition of O=C(Nc1nnc(-c2ccc(Cl)cc2)o1)C1CCCCC1 .
a: -2.33

q: Give the measured inhibition of S=c1[nH]nc(-c2ccccc2)n1C1C=CCCC1 (stereo not drawn) .
a: -6.33

q: Give the measured inhibition of COc1cccc2cc(C(=O)OC3CCN(C)CC3)c(=O)oc12 .
a: 0.67

q: Give the measured inhibition of O=C(Cn1nc(Cc2ccncc2)c2ccccc2c1=O)N1CCc2ccccc2C1 .
a: -3.77

q: Give the measured inhibition of C=CCc1ccccc1OCCCCN1CCCC1 .
a: -1.31

====

- assay.info: yeast transport mutant growth inhibition pilot in 384-well plates, post-Golgi transport modulator project (AID 636)
- settings: absorbance 615 nm, about 18 h, stronger effect = higher value
Active and inactive are the calls of the source. Cut-off read from the data, not from the text of the source: active = inhibition above about 31%; inactive = the rest.
parameter: inhibition

q: Give the measured inhibition of Cc1cc(NC(=O)CS(=O)(=O)c2cn(Cc3ccccc3Cl)c3ccccc23)no1 .
a: -5.2% (inactive)

q: Give the measured inhibition of CCCSc1nnc(N2C(=O)CC(c3ccsc3)C3=C2CCCC3=O)s1 (stereo not given) .
a: -5.87% (inactive)

====

- assay.info: Her2 expression decrease, cell viability multiplex – SKBR3 breast tumor cells, AlphaScreen, ATP viability, primary screen (AID 461);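 also: percent of carrier control wells set as 100% viability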
- settings: SKBR3 Her2 protein level, 18-24 h, measured here: SKBR3 viability, ATP luminescence, at 10 µM
parameter: viability (%)
The response must be a number in % with no trailing unit.

CCOc1ccc(NC(=O)C(C)Sc2nnc(C)n2C)cc1 (stereo not given) :: 92
CNC(=O)C1C2C=CC3(O2)C1C(=O)N(C1CC1)C3C(=O)NCc1ccc(OC)cc1 (stereo not given) :: 99.5
CCc1ccccc1NC(=O)c1cnc2n(c1=O)CCS2 :: 90.5
CC1CCCCN1CCNC(=O)c1ccc2c(=O)n(CCc3ccccc3)c(=O)[nH]c2c1 (stereo not given) :: 91
CCOC(=O)C(C)(C)Sc1nc2c(cnn2-c2ccc(Cl)cc2)c(=O)[nH]1 :: 76

q: Give the measured viability of c1ccc2c(c1)Cc1cc(CN3CCOCC3)ccc1-2 .
a: 85

q: Give the measured viability of CC(=O)NCc1nc2ccccc2n1C(C)C .
a: 104

q: Give the measured viability of C=CCNC(=O)CSc1nc2sc(C)c(C)c2c(=O)[nH]1 .
a: 96.5

q: Give the measured viability of CC(=O)N1c2c(cc(Br)cc2S(=O)(=O)N2CCN(c3ccccn3)CC2)CC1C (stereo not given) .
a: 80.5

q: Give the measured viability of CCCSc1nc2c(cnn2-c2ccc(C)cc2)c(=O)[nH]1 .
a: 93

q: Give the measured viability of CCN1CCN(C(=O)c2oc(=O)c3ccccc3c2-c2ccc(C)cc2)CC1 .
a: 96

====

- assay.info: RAM signaling pathway blockade in yeast – S. cerevisiae, Pdr1DBD-CYC8 efflux-inhibited sensitized strain, primary screen (AID 1298);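 also: 0% = DMSO untreated cells without growth and 100% = 10 µM 1-NA-PP1 full growth; higher means more yeast growth rescued from 5-FOA killing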
- settings: S. cerevisiae cbk1-as DSE1-URA3 strain, 5-FOA growth OD615, 2 d; at 50 µM; stronger effect = higher value
parameter: RAM network inhibition (%)
The response must be a number in % with no trailing unit.

COc1ccc(C(=O)NCc2nc3ccccc3[nH]2)cc1OC :: 6.63

Consider now this further compound.
q: Give the measured RAM network inhibition of O=C(Cn1cc2c(n1)CCCC2)NCCc1ccccc1 .
a: 1.42

====

- assay.info: viability of PTEN-null HCT116 cells – cell-based, HCT116 clonal line, CellTiter-Glo, pilot screen (AID 824);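 also: 0% = 20 µM Hyamine control and 100% = vehicle cell control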
- settings: HCT116 PTEN-deleted viability, 60 h, at 10 µM, stronger effect = lower value
Records with an inconclusive call do not appear.
parameter: viability (%)
The response must be a number in % with no trailing unit.

CCN(CC)S(=O)(=O)c1ccc2c(c1)nc(SCn1nnc3ccccc3c1=O)n2CC :: 103

q: Give the measured viability of COc1ccccc1S(=O)(=O)Cc1ccc(C(=O)NCCN2CCCCCC2)o1 .
a: 104

q: Give the measured viability of O=C(Cn1c(=O)sc2ccccc21)NCCOc1ccccc1F .
a: 98.4

q: Give the measured viability of CCOc1ccc(C2Oc3nc(SC)nnc3-c3ccccc3N2C(C)=O)cc1OC (stereo not drawn) .
a: 99.8

q: Give the measured viability of CC(=O)c1cccc(NC(=O)CCNS(=O)(=O)c2cccc3nsnc23)c1 .
a: 93.5

q: Give the measured viability of CCOc1ccc(S(=O)(=O)n2c(C)nc3ccccc32)cc1 .
a: 96.2
